Please provide measured CC50 at 24 h for the entries that follow.
Test: in vitro
Conditions: African green monkey, CC50 cell toxicity, Vero cells, MTS, no virus; compounds from secondary screening
Counter-ions that a name gives are not always drawn. *1 amine or outer side, *2 acyl side, *3 side chain or, on linkers, in order; H or OH if unused. Where a SMILES comes first, the peptide text is derived from it. Bridges are numbered along the chain shown (N, C = ends). [ ]: non-standard residue; d: D form. The star is where a group is joined. hTyr(3S-OH,4S-OH,3'-OSO3H) = N[C@H](C(=O)O)[C@H](O)[C@@H](O)c1ccc(O)c(OS(=O)(=O)O)c1; Orn(4R-OH,5R-OH) = O=C([C@H](C[C@@H](O)[C@@H](O)N[*:3])N[*:1])[*:2]; Pro(3S-OH,4S-Me) = C[C@H]1CN[C@H](C(=O)O)[C@H]1O; X1 = CCCCCOc1ccc(-c2cc(-c3ccc(C(=O)*)cc3)no2)cc1; Gln(3R-OH) = NC(=O)C[C@@H](O)[C@H](N)C(=O)O; Hyp = O=C(O)[C@@H]1C[C@@H](O)CN1

Each molecule below has a reported value. Please supply its CC50 at 24 h.
1. Cc1ccc(NC(=O)c2ccc(CN3CCN(C)CC3)cc2)cc1Nc1nc(-c2cccnc2)cs1
2. CCN(CC)Cc1cc(Nc2ccnc3cc(Cl)ccc23)ccc1O

Solution:
1. 47.1 µM
2. > 50 µM

Each molecule below has a reported value. Please supply its CC50 at 24 h.
1. CCCCCOc1ccc(-c2cc(-c3ccc(C(=O)N[C@H]4C[C@@H](O)[C@@H](O)NC(=O)[C@@H]5[C@@H](O)[C@@H](C)CN5C(=O)[C@H]([C@H](O)CC(N)=O)NC(=O)[C@H]([C@H](O)[C@@H](O)c5ccc(O)c(OS(=O)(=O)O)c5)NC(=O)[C@@H]5C[C@@H](O)CN5C(=O)[C@H]([C@@H](C)O)NC4=O)cc3)no2)cc1 [Micafungin] (X1-[Orn(4R-OH,5R-OH)]T[Hyp][hTyr(3S-OH,4S-OH,3'-OSO3H)][Gln(3R-OH)][Pro(3S-OH,4S-Me)]; lactam 1-C)
2. CCN(CC)C(C)CN1c2ccccc2Sc2ccccc21 (centres unmarked) [Ethopropazine hydrochloride]
3. C=C[C@H]1C[N@@]2CC[C@H]1C[C@@H]2[C@@H](O)c1ccnc2ccc(OC)cc12 [Quinidine gluconate]

Solution:
["> 50 µM", "> 50 µM", "> 50 µM"]
